Source listed as ChEMBL document CHEMBL5506017.

# experiment_summary: Metabolic stability in human liver microsomes assessed as half life at 2 uM measured upto 60 mins by LC-MS/MS analysis
# Type: ADME, Microsome
# conditions_used: 1 h
outcome_measure: t1/2 (min)

Solved entries:
molecule: C[C@]1(C(=O)[C@H](Cc2ccccc2)NC(=O)[C@@H]2COCCCCCC(=O)N3C[C@H](F)C[C@H]3C(=O)N2)CO1
outcome_measure: t1/2
readout_units: min
assay_value: 13.4
--
molecule: C[C@]1(C(=O)[C@H](CC2=CCCC2)NC(=O)[C@@H]2COCCCCCC(=O)N3C[C@H](F)C[C@H]3C(=O)N2)CO1
outcome_measure: t1/2
readout_units: min
assay_value: 8.29

a: CC(C)C[C@H](NC(=O)[C@@H]1COCCCCCC(=O)N2CC[C@H]2C(=O)N1)C(=O)[C@@]1(C)CO1
b: C[C@]1(C(=O)[C@H](Cc2ccccc2)NC(=O)[C@@H]2Cc3ccc(cc3)OCCCCCCCC(=O)N3CCC[C@H]3C(=O)N2)CO1
c: CC(C)C[C@H](NC(=O)[C@@H]1COCCCCCC(=O)N2CC(F)(F)C[C@H]2C(=O)N1)C(=O)[C@@]1(C)CO1
Prompt: Could you please sort these 3 entries by t1/2 from high to low? The response must list the labels following the requested ordering.
Response: a, c, b
(a: 43 min, c: 21.6 min, b: 1.35 min)

P: CC(C)C[C@H](NC(=O)[C@@H]1COCCCCCC(=O)N2C[C@H](F)C[C@H]2C(=O)N1)C(=O)[C@@]1(C)CO1
Q: CC(C)C[C@H](NC(=O)[C@H](CCc1ccccc1)NC(=O)CN1CCOCC1)C(=O)N[C@@H](Cc1ccccc1)C(=O)N[C@@H](CC(C)C)C(=O)[C@@]1(C)CO1 [CARFILZOMIB]
Prompt: Compare P and Q and name the one whose reported t1/2 is smaller. Mark your answer with the label of the selected entry.
Response: Q
